FYI, the data here is from PubChem BioAssay (NCI).

System: OVCAR-8 ovarian
Assay: NCI tumour cell line growth inhibition, 48 h; in the data active = GI50 below about 0.43 µM; inactive = the rest
Pick one and only one: true (1) (active), false (0) (inactive)

compound | tested.target | answer.label
C/C(=N\O)c1cccc(Nc2cc(-n3ccnn3)c3ccccc3n2)c1 | OVCAR-8 ovarian | false (0)
CC(C)CNCC(O)COc1ccc(C(C)(C)c2ccc(OCC(O)CNCC(C)C)cc2)cc1 (centres undefined) | OVCAR-8 ovarian | false (0)
CCN(CC)CCNc1ccc([N+](=O)[O-])c2sc3ccccc3c(=O)c12 | OVCAR-8 ovarian | false (0)

Outcome? COc1ccc2c(c1)/C(=C\c1cccnc1)C(=O)N2 false (0)

Outcome? CC1(C)CC[C@H](Nc2ncc(C(F)(F)F)c(-c3c[nH]c4c(P(C)(C)=O)c(C#N)ccc34)n2)CN1 false (0)

Outcome? Oc1ccc(C(c2ccc(O)cc2)c2ccc(Cl)cn2)cc1 true (1)

###

System: MDA-MB-435
Experiment: NCI tumour cell line growth inhibition, 48 h
Criterion: TGI meeting or surpassing 20 µM. Met: condition met. Not met: condition not met.

chem.smiles | answer.label
C/C(=N\O)c1cccc(Nc2cc(-n3ccnn3)c3ccccc3n2)c1 | condition met
CCc1n(Cc2ccc3ccccc3n2)cc[n+]1Cc1ccc2ccccc2n1 | condition not met
C[C@H](NC(=O)[C@@H]1CSSC[C@@H](NC(=O)c2nc3ccccc3cc2O)C(=O)NCC(=O)N1C)c1ccccc1 | condition not met
CC1(C)CC[C@H](Nc2ncc(C(F)(F)F)c(-c3c[nH]c4c(P(C)(C)=O)c(C#N)ccc34)n2)CN1 | condition not met
CC[N+](C)(CC)CCC(O)(c1ccccc1)c1ccccc1 | condition met

# bool: TGI of O=C(CCN1CCCC1)Nc1ccc2sc3ccccc3c(=O)c2n1 >= 20 µM condition not met

# bool: TGI of O=C(Nc1ccc(F)cc1)c1ccc(NC2=C(Cl)C(=O)N(Cc3ccccc3)C2=O)cc1 >= 20 µM condition met

# bool: TGI of O=C(O)[C@@H]1[C@H](C(=O)O)[C@H](C(=O)O)C[C@@H]1C(=O)O >= 20 µM condition met

# bool: TGI of NC(=S)N/N=C\c1ccc(OCc2cccc(COc3ccc(/C=N/NC(N)=S)cc3)n2)cc1 >= 20 µM condition met

# bool: TGI of CCCCc1cc2c(C)cc(=O)oc2c(O)c1O >= 20 µM condition met

###

System: KM12 colon
Assay: NCI tumour cell line growth inhibition, 48 h
quantity: TGI

compound | TGI
CCOC(=O)C1(C(=O)OCC)[C@H](c2ccccc2)C2=NO[C@@H]3CCC[C@H]1[C@H]23 | > 100 µM

Oc1cc(O)c(Oc2cccc(O)c2O)c(O)c1 yielded TGI of > 100 µM

CCc1c(Cc2cccc3ccccc23)n2c(nc1=O)SCC2OCCO (stereo not given) yielded TGI of > 100 µM

COc1nc2c(c(=O)n1C)N[C@H]1[C@H](OC(C)=O)[C@@H](OC(C)=O)CO[C@H]1N2 yielded TGI of > 100 µM

O=C1C=CC(=O)C(CNc2ccc(C(=O)OC34CC5CC(CC(C5)C3)C4)cc2)=C1 yielded TGI of 22.5 µM

###

System: ACHN renal
Experiment: NCI tumour cell line growth inhibition, 48 h
quantity: TGI

O=C(Nc1ccc(Cl)cc1Cl)C(=O)C(C(=O)c1ccc2ccccc2c1)C1OC(=O)c2ccccc21 (centres undefined) yielded TGI of > 100 µM

COc1ccc(N2Cc3cnc(Nc4ccccc4)nc3N([C@@H]3CC[C@@H](O)C3)C2=O)cc1 yielded TGI of > 25 µM

CC(C)=CCC[C@@H](C)C1=C(Nc2ccccc2Cl)C(O)=C(C)C(=O)C1=O yielded TGI of 11.1 µM

COC(=O)C1CCC(=O)N1C(=O)Cc1ccc(OC)cc1 (centres undefined) yielded TGI of > 100 µM

C=C1SC(=Nc2c(C)cc(C)cc2C)N(C(=O)c2sc3ccccc3c2Cl)C12CCCCC2 yielded TGI of > 100 µM

COc1ccc(-c2nc3sc(-c4ccc(Cl)cc4)cn3n2)cc1 yielded TGI of 2.02 µM

O=C(c1ccccc1)C1CCCCN1C(=O)c1ccccc1 (centres undefined) yielded TGI of > 100 µM

OC1c2ccccc2C2(O)C1C(c1ccccc1)C(c1ccccc1)C2(O)c1ccccc1 (centres undefined) yielded TGI of 29.7 µM

Cc1cc(C)c(P2C(=C(O[Si](C(C)C)(C(C)C)C(C)C)C(C)(C)C)C2(c2ccccc2)c2ccccc2)c(C)c1 (centres undefined) yielded TGI of > 100 µM
